Provide the recorded TD50 for the entries that follow.
experiment: Neurotoxicity: rightening, gait, stance, muscle tone and equilibrium tests; assay type: in vivo; details: in vivo; P = 0.05; read-out: TD50 (mean neurotoxic dose)
Give bare numbers, in mg/kg.

Observe how each entry below is paired with its result.
CC(C)Oc1ccc(C2CC(=O)NC2=O)cc1 (stereo not drawn) [proposed preparation, α-/para-isopropoxyphenyl/succinimide]; 720
CN1C(=O)CC(c2ccccc2)C1=O (stereo not drawn) [Milontin, N-methyl-α-phenylsuccinimide]; 340

Read the next record carefully.
Please report TD50 for the following compound: CCC1(C)CC(=O)NC1=O (stereo not drawn) [Zarontin, α-methyl, ethylsuccinimide] 590

* * *

experiment: Mutagenicity, threonine locus of Bacillus coli; assay type: cell-based; conditions: bacillus coli, 0.2-mole concentration, read-out: survival rate of the cells
assay.metric: viability at 24 h, 200000 µM

Please report viability at 24 h, 200000 µM for the following compound: CC(C)Oc1ccc(C2CC(=O)NC2=O)cc1 (stereo not drawn) [proposed preparation, α-/para-isopropoxyphenyl/succinimide] 42 to 91%

* * *

assay: Acute toxicity, single intraperitoneal administration, 48 hours (Litchfield and Wilcockson); format: in vivo, white mice; conditions: mouse, in vivo, ip; intraperitoneal, white mice, P=0.05
Provide the recorded LD50 at 48 h for the entries that follow.
One number for each entry, in mg/kg.

Observe how each entry below is paired with its result.
CC(C)Oc1ccc(C2CC(=O)NC2=O)cc1 (stereo not drawn) [proposed preparation, α-/para-isopropoxyphenyl/succinimide]; 2150
CCC1(C)CC(=O)NC1=O (stereo not drawn) [Zarontin, α-methyl, ethylsuccinimide]; 1320

Read the next record carefully.
Please report LD50 at 48 h for the following molecule: CN1C(=O)CC(c2ccccc2)C1=O (stereo not drawn) [Milontin, N-methyl-α-phenylsuccinimide] 950

* * *

assay: Duration of Nembutal-induced sleep; format: in vivo; conditions: P = 0.05; Nembutal 40 mg/kg; proposed preparation 100 mg/kg, zarontin 150 mg/kg, milontin 100 mg/kg
assay.metric: Average Duration of Nembutal-Induced Sleep
Please make sure the unit comes right after the number.

Observe how each entry below is paired with its result.
CN1C(=O)CC(c2ccccc2)C1=O (stereo not drawn) [Milontin, N-methyl-α-phenylsuccinimide]; 139.2 ± 33.2 min
CCC1(C)CC(=O)NC1=O (stereo not drawn) [Zarontin, α-methyl, ethylsuccinimide]; 76.9 ± 28.9 min
CC(C)Oc1ccc(C2CC(=O)NC2=O)cc1 (stereo not drawn) [proposed preparation, α-/para-isopropoxyphenyl/succinimide]; 99 ± 67.6 min

Read the next record carefully.
Please report Average Duration of Nembutal-Induced Sleep for the following compound: CCCC(C)C1(CC)C(=O)NC(=O)NC1=O (stereo not shown) 40.8 ± 23.04 min

* * *

test: Mutagenicity, threonine locus of Bacillus coli; assay type: cell-based; conditions: bacillus coli, 0.2-mole concentration, read-out: revertants relative to control (spontaneous mutation)
assay.metric: fold induction at 24 h, 200000 µM
Give bare numbers.

Please report fold induction at 24 h, 200000 µM for the following compound: CC(C)Oc1ccc(C2CC(=O)NC2=O)cc1 (stereo not drawn) [proposed preparation, α-/para-isopropoxyphenyl/succinimide] 1.8
